Molecular target: CW6W54.001
Test: SPR Biacore 8K, captured mAb; Kinetic fit not valid
Give measured koff for each item. Keep answers brief.
Just the number in s⁻¹, nothing appended.

Quick one: koff for CW6B229 (antibody, V domains shown, also called CW6B229.001; CW6M229 (DNA ID)) VH: QVQLQESGPGLVKPSETLSLTCTVSGNSIRSYYWSWIRQPAGKGLEWIGRIYISGNTNYNPSLKSRVTMSIDTSKNQFSLKLSSVTAADTAVFYCARLSGIDAFDIWGQGTMVTVSS VL: DIQMTQSPSSLSASVGDRVTITCQASQDISNYLNWYQQKPGKAPKLLIYDASNLETGVPSRFSGSGSGTDFTFTISSLQPEDFATYYCQQYDNLPITFGQGTRLEIK ?
0.000465

What about this binder? CW6B130 (antibody, V domains shown, also called CW6B130.001; CW6M130 (DNA ID)) VH: QLQLQESGPGLVKPSETLSLTCTVSGASISSINYYWGWIRQPPGKGLEWIGSFYYSGNTYYNPSLKSRVTISVDTSKNYFSLKLNSVTAADTAVYYCAREYYDSSGYYPFEPWGQGTLVTVSS VL: SYVLTQPPSVSVAPGQTARITCGGDNIGSESVHWYQQKPGQAPVLVVYDDTDRPSGIPERFSGSKSGTTATLTISWVEAGDEADYYCQVWDSSSDHVVFGGGTKLTVL
0.00204

What about this binder? CW6B230 (antibody, V domains shown, also called CW6B230.001; CW6M230 (DNA ID)) VH: QVQLQESGPGLVKPSETLSLTCTVSGNSISNYYWSWIRQPAGKGLEWIGRIYITGNTNYNPSLKSRVTMSLDTSKNQFSLKLSSVTAADTAVYYCARLSGIDAFDIWGQGTMVTVSS VL: DIQMTQSPSTLSASVGDRVTFTCQASQDITKYLNWYQQKPGKAPKLLIYDASNLETGVPSRFSGSGSGTDFTFTISSLQPEDFATYYCQQYDDLPITFGQGTRLEIK
0.000655

What about this binder? CW6B233 (antibody, V domains shown, also called CW6B233.001; CW6M233 (DNA ID)) VH: QVQLQESGPGLVKPSETLSLTCTVSGNSIRSYYWSWIRQPAGKGLEWIGRIYISGNTNYNPSLKSRVTMSIDTSKNQFSLKLSSVTAADTAVYYCARLSGIDAFDIWGQGTMVTVSS VL: DIQMTQSPSSLSASVGDRVTITCQASQDITNYLNWYQQKPGKAPKLLIYDASNLETGVPSRFSGSGSGTDFTFTISSLQPEDFATYYCQQYDNLPITFGQGTRLEIK
0.000484
